# Assayed Target: Heat shock factor protein 1 (Homo sapiens) (UniProt Q00613)
# Sequence (Q00613 whole entry, looked up): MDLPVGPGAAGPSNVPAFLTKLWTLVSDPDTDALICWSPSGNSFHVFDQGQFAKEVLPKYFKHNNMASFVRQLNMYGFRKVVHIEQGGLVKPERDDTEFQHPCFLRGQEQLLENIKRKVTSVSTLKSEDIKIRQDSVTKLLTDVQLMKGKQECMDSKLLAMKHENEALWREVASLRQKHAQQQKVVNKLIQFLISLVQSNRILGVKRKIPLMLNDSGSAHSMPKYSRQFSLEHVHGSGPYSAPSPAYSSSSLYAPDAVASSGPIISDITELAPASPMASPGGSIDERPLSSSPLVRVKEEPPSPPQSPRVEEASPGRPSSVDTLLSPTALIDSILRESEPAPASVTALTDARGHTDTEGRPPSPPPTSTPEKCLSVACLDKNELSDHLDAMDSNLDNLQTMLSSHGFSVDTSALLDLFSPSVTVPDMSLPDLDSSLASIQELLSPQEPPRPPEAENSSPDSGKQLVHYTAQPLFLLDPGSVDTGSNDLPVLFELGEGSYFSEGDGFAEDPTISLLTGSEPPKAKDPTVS
# Assay Overview: ATG_HSE_CIS: Attagene CIS-FACTORIAL HepG2 Assay for human Heat Shock Transcription Factor 1 (HSE) (AID 2282953)
# Measurement Parameters: HepG2 HSE cis-reporter, Attagene RNA transcription; actives raise or lower the signal
Activity calls are given as the source filed them. How the source made its calls: active means hit-call score of the fitted dose curve at least 0.9, where 1 is the maximum; inactive means score below 0.9.
Outcomes: active, inactive

{"columns": ["Compound", "Cat"],
 "data": [
  ["CC(C)C(=O)OCC=Cc1ccccc1", "inactive"],
  ["CCC(C)(C)C1CCC(OC)CC1 (centres undefined)", "inactive"],
  ["CCCCCCOc1ccc(O)cc1", "active"],
  ["CCOC(=O)CC1(C)OCC(C)O1 (centres undefined)", "inactive"],
  ["CCCCCCCCCCCCCCCCCC(=O)OCCCCCCCCCCCCCC(C)C", "inactive"],
  ["CC(=O)Oc1c(C)c(C)c2c(c1C)CC[C@@](C)(CCC[C@H](C)CCC[C@H](C)CCCC(C)C)O2", "inactive"],
  ["CC1=CC(C)C(C=O)C(C)C1 (centres undefined) (tested in a mixture with another compound)", "inactive"],
  ["CC(C)(O)CCc1ccccc1", "inactive"],
  ["CCCOC(=O)CC", "inactive"],
  ["N#CCCNCCC#N", "inactive"],
  ["CCCCCCCCCCCCOC(C)=O", "inactive"],
  ["O=C1CCC(=O)N1", "inactive"],
  ["CCCCCCCCOC(=O)c1ccc(O)cc1", "inactive"],
  ["c1ccc(Sc2ccccc2)cc1", "inactive"]
]}

Origin of values: PubChem BioAssay (EPA / NIEHS)
